Catalogue of compounds with associated kinase still bound, per cent of control
- Assay System: STK11 (human) (UniProt Q15831)
- Sequence (Q15831 whole entry, looked up): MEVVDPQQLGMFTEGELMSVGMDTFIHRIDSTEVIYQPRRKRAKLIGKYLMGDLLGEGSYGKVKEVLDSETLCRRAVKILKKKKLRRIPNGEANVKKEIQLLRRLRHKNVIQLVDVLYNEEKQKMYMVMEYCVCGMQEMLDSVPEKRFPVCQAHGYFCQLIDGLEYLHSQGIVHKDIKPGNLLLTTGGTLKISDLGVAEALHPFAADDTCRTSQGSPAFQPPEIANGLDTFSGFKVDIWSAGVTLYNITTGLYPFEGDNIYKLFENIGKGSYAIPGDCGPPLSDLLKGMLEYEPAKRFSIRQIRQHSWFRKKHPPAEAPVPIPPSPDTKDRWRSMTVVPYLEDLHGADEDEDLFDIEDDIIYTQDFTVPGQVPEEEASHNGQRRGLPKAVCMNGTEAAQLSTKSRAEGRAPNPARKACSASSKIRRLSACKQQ
- Assay Text: KINOMEscan competition binding
- Test Context: compound 1.0 µM
Reported Property: kinase still bound, per cent of control

- Smiles Entry: "CN(C)C/C=C/C(=O)Nc1cccc(C(=O)Nc2ccc(Nc3nccc(-c4c(-c5ccccc5)nn5ccccc45)n3)cc2)c1"
  Reported Property: "kinase still bound, per cent of control"
  Observed Value: "93%"
- Smiles Entry: "Cc1cc(NC(=O)c2cccc(NC(=O)/C=C/CN(C)C)c2)ccc1Nc1nccc(-c2cccnc2)n1"
  Reported Property: "kinase still bound, per cent of control"
  Observed Value: "100%"
- Smiles Entry: "CN(C)C/C=C/C(=O)Nc1cccc(C(=O)Nc2ccc(Nc3nccc(/C(C#N)=C4\\Nc5ccccc5S4)n3)cc2)c1"
  Reported Property: "kinase still bound, per cent of control"
  Observed Value: "90%"
- Smiles Entry: "CN(C)C/C=C/C(=O)Nc1cccc(C(=O)Nc2ccc(Nc3nccc(-c4cccnc4)n3)cc2)c1"
  Reported Property: "kinase still bound, per cent of control"
  Observed Value: "67%"
